- tested target: T1, human UCN1 peptide (human, UniProt P55089 83-122)
- T1 peptide (looked up): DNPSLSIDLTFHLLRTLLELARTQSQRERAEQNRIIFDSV
- assay procedure: cell-based or functional assay
observable: hUCN1 IC50/ CRH IC50 (fold)
Answer format: numeric, fold implied, no suffix.

Give recorded hUCN1 IC50/ CRH IC50. PR302341-60 (antibody, human IgG1, kappa, V domains shown, Humanized, PTM-removed variant of PR302341) VH: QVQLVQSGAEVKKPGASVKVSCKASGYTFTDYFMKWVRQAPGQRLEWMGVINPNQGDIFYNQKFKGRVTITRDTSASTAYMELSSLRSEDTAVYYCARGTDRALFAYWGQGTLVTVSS VL: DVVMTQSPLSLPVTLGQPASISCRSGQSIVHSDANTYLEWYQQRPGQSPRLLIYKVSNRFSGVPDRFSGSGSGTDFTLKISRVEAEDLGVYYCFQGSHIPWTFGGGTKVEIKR
81
